targetEntity: human recombinant HDAC6 (Homo sapiens)
Construct: purchased Calbiochem 382180
Sequence (Q9UBN7 1-1215): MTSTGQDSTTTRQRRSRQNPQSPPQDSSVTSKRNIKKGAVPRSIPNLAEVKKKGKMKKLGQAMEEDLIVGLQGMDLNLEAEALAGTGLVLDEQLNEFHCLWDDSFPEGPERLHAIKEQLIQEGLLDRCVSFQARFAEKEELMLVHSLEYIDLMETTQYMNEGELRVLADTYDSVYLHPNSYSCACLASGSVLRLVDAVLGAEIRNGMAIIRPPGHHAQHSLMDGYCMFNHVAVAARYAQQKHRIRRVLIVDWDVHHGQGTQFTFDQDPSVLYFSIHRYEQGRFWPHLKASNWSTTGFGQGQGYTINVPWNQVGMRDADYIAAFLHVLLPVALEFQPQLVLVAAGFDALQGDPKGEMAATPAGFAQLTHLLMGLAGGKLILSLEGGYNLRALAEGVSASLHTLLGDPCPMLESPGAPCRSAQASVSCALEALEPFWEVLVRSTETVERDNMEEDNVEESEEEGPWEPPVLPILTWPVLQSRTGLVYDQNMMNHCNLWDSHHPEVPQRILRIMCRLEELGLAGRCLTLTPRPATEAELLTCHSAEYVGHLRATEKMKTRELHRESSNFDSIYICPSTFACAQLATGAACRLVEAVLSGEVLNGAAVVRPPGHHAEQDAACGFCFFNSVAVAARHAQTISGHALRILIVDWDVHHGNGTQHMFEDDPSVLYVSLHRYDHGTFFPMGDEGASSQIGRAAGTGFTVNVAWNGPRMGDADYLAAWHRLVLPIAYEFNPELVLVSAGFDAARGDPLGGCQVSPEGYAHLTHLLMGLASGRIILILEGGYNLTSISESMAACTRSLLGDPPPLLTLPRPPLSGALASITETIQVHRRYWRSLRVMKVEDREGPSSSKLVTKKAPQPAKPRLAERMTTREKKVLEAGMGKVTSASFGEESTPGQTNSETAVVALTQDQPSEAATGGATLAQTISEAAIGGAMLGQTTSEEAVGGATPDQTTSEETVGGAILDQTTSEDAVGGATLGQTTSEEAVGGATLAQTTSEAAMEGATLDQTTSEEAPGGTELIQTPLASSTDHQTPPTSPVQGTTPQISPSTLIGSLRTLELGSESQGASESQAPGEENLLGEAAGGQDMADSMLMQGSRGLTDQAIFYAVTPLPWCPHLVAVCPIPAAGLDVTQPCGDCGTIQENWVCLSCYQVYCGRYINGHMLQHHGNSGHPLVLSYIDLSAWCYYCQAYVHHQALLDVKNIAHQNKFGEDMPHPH
methodDescription: HDAC6 enzyme activity inhibition assay (HDAC Fluorimetric Drug Discovery Kit)
Format: biochemical
experimentalSetup: HDAC1 vs HDAC6
For each of the compounds below, state its HDAC6 selectivity (fold).
Answers are plain numbers, in fold.

INSERT INTO measurements (linenotation, reportedresult) VALUES
  ('CS(=O)(=O)N(Cc1cnc(-c2nnc(C(F)F)o2)cn1)c1ccccc1', 586);

Hey, quick one: what's HDAC6 selectivity (fold) for each of these?
1. C[C@H]1CCCN1CCCS(=O)(=O)N(Cc1ccc(-c2nnc(C(F)F)o2)cc1)c1ccccc1
2. CC(C)(C)OC(=O)N1CCN(CCS(=O)(=O)N(Cc2ccc(-c3nnc(C(F)F)o3)cc2)c2ccccc2)CC1
3. CCS(=O)(=O)N(Cc1ccc(-c2nnc(C(F)F)o2)cn1)c1cccc2cnn(C)c12

597
436
6250

Find the recorded HDAC6 selectivity (fold) belonging to CCS(=O)(=O)N(Cc1ccc(-c2nnc(C(F)F)o2)cc1F)c1ccc(CN2CCN(C(C)=O)CC2)cc1 and report it.
1316

All figures here come from patent US10538498B2.
